Biological target: GCN2 (Homo sapiens, UniProt Q9P2K8)
Sequence (Q9P2K8 whole entry): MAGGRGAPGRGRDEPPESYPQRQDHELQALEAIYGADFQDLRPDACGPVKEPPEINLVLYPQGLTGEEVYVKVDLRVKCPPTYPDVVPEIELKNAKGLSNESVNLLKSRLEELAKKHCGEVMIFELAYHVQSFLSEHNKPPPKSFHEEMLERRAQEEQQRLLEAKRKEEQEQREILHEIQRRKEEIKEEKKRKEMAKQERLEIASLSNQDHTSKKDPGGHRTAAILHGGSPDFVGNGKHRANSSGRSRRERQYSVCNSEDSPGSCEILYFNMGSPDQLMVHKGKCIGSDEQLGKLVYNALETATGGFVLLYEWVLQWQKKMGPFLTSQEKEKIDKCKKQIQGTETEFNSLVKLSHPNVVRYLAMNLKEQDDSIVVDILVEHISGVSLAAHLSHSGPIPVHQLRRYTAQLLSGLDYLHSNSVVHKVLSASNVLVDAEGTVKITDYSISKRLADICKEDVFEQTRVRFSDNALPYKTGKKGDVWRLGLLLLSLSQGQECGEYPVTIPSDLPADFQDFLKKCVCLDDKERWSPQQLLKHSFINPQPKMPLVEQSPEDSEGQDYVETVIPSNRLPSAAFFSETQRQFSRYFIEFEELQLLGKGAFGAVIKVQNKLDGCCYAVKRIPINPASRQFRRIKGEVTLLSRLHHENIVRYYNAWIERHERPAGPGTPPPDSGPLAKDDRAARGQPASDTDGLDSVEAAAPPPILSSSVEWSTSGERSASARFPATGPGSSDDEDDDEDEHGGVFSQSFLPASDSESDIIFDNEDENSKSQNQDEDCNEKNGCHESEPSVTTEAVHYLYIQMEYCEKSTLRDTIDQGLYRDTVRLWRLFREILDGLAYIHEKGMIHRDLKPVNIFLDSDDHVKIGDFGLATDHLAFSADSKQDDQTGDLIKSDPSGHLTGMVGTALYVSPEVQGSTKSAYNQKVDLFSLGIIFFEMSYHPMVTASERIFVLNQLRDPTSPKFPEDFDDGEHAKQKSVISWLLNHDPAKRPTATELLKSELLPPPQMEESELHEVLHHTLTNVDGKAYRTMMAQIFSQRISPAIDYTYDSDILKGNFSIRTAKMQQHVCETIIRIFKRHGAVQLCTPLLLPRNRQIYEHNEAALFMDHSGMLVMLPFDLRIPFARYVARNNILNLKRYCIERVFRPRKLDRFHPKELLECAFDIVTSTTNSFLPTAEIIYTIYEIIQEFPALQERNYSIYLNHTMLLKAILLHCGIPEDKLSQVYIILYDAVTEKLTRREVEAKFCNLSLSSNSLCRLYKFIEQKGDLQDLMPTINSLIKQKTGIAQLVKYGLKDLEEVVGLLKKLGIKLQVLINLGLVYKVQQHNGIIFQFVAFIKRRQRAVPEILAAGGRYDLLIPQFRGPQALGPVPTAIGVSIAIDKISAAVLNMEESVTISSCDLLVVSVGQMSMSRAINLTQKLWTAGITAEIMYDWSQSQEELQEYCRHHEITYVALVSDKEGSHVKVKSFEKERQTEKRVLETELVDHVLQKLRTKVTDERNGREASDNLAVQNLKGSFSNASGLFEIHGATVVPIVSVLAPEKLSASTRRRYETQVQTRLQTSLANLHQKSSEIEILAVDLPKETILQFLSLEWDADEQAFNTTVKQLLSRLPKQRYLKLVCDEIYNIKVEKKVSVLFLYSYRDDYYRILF
Assay: TR-FRET biochemical assay for inhibition of GCN2 (Example 106, for Example 1-4BB)
Conditions: Table 8
# Lookup of reported IC50 keyed by entry

Returns the measured IC50 for the input compound. Input: Cc1ccc(S(=O)(=O)Nc2ccc(F)c(-c3ccc4c(-c5ncc[nH]5)n[nH]c4c3F)c2F)cc1 [Example 1] 500 to 2500 nM

Subsequent entry: COc1cccc(S(=O)(=O)Nc2ccc(F)c(-c3ccc4c(-c5ncc[nH]5)n[nH]c4c3F)c2F)c1F [Example 2AP] < 500 nM

Subsequent entry: COc1nn(C)cc1S(=O)(=O)Nc1ccc(F)c(-c2ccc3c(-c4ncc[nH]4)n[nH]c3c2F)c1F [Example 2K] 500 to 2500 nM

Subsequent entry: Cc1ccc(F)cc1S(=O)(=O)Nc1ccc(F)c(-c2ccc3c(-c4ncc[nH]4)n[nH]c3c2F)c1F [Example 2BJ] < 500 nM

Subsequent entry: COc1ncccc1S(=O)(=O)Nc1ncc(F)c(-c2ccc3c(-c4ncc[nH]4)n[nH]c3c2F)c1F [Example 2CL] < 500 nM

Subsequent entry: O=S(=O)(Nc1ccc(F)c(-c2ccc3c(-c4ncc[nH]4)n[nH]c3c2F)c1F)c1cccc(Cl)c1 [Example 2CN] 500 to 2500 nM

Subsequent entry: O=S(=O)(Nc1ccc(F)c(-c2ccc3c(-c4ncc[nH]4)n[nH]c3c2F)c1F)c1ccc(Cl)cc1Cl [Example 2BN] < 500 nM
